- System: TK-10
- protocol.text: NCI tumour cell line growth inhibition, 48 h
Active and inactive are the calls of the source. Cut-off read from the data, not from the text of the source: active = GI50 up to about 1.1 µM and inactive = higher.

| compound | target.under.test | GI50 |
| --- | --- | --- |
| Cc1ccc(NC(=O)c2cc3cc(/N=N/c4ccc(Br)cc4)ccc3oc2=O)cc1 | TK-10 | > 100 µM (inactive) |
| Cn1c(S)nc2c(Cl)cc(Cl)cc2c1=O | TK-10 | > 100 µM (inactive) |
| CCOC(=O)/C(C(N)=O)=C(O)/C(O)=C/C(=O)c1ccc(Cl)cc1 | TK-10 | 8.63 µM (inactive) |
| Cc1ccc(/C=C/C(=O)c2sc(-n3nc(-c4ccccc4)cc3-c3ccccc3)nc2C)cc1 | TK-10 | > 100 µM (inactive) |
| O=C1/C(=N/N=C(c2ccccc2)c2ccccc2)c2ccccc2-c2ccccc21 | TK-10 | 75.5 µM (inactive) |
| O=C1O/C(=C(/Cl)c2cccc3ccccc23)c2ccccc21 | TK-10 | > 100 µM (inactive) |
| CN(NC(=O)/C(=C\c1ccco1)NC(=O)c1ccccc1)c1cn[nH]c(=O)c1Cl | TK-10 | > 100 µM (inactive) |
| N#Cc1ccc(-c2nc3c(N)nc(-c4ccccc4)nc3o2)cc1 | TK-10 | > 100 µM (inactive) |
| CC1(C)CC(=O)C2(CC(CSc3ccccc3)C(CS(=O)(=O)c3ccccc3)C2)C(=O)C1 (stereo not given) | TK-10 | > 100 µM (inactive) |
| Cc1ccc(C(=O)Cn2c(C(=O)/C=C/c3cccs3)nc3ccccc32)cc1 | TK-10 | 53.2 µM (inactive) |

----------
- Tested on: KM-20L2
- protocol.text: NCI tumour cell line growth inhibition, 48 h
The source made the active and inactive calls. No stated cut-off is given here; in the data, active = GI50 up to about 1.1 µM and inactive = higher.
Quick list: GI50 per entry.
recorded.metric: GI50

| compound | assay.result |
| --- | --- |
| Cc1cc(O)nc(NN2C(Cl)C(=O)C2c2cccc([N+](=O)[O-])c2)n1 (stereo not drawn) | 27.3 µM (inactive) |
| O=C(O)c1ccccc1C1c2ccc(Cl)cc2Oc2cc(Cl)ccc21 | > 100 µM (inactive) |
| CC#C[C@@]1(O)CCCC[C@@H]1O | > 100 µM (inactive) |
| COC(=O)c1ncc2c(=O)[nH]c3ccccc3c2c1C(=O)OC | > 100 µM (inactive) |
| O=S(=O)(N/N=C/c1c(Cl)cccc1Cl)c1ccccc1 | > 100 µM (inactive) |
| CC/C=C\C/C=C\C/C=C\CCCCCCCC(=O)OCC(O)CO (stereo not drawn) | > 100 µM (inactive) |
| CN(C)C(=S)N=C(Nc1ccccc1)Nc1ccccc1 | > 100 µM (inactive) |
| Cc1ccc(-c2nnc3s/c(=C\c4ccc(N(C)C)cc4)c(=O)n23)cc1 | > 100 µM (inactive) |
| C/C(CC(=O)Nc1ccccc1[N+](=O)[O-])=N\NC(N)=O | > 100 µM (inactive) |
| C=C(Nc1ccc(OC)cc1OC)C(=O)Cc1cccc[n+]1[O-] | > 100 µM (inactive) |
| Cc1ccc(S(=O)(=O)OC(COC(=O)c2ccccc2)C(OS(=O)(=O)c2ccc(C)cc2)C(OS(=O)(=O)c2ccc(C)cc2)C(COC(=O)c2ccccc2)OS(=O)(=O)c2ccc(C)cc2)cc1 (stereo not drawn) | > 100 µM (inactive) |
| CC(C)N(C(=O)C12C3C4C5C3C1(C#N)C5C42)C(C)C (stereo not drawn) | > 100 µM (inactive) |
| COc1ccc(C(=O)O)c(Cc2cccc3ccccc23)c1 | > 100 µM (inactive) |
| CCOC(=O)c1cc(-c2ccc(-c3cc(C(=O)OCC)c(C#N)c(N)c3C#N)cc2)c(C#N)c(N)c1C#N | > 100 µM (inactive) |
| CN1CCN=C1c1nnn(-c2ccc([N+](=O)[O-])cc2)c1-c1ccccc1 | > 100 µM (inactive) |
| COc1ccc(NC(=O)C(=O)NO)c(OC)c1 | 19.1 µM (inactive) |
| O=C(NC1C(=O)NNC1c1cccc([N+](=O)[O-])c1)c1ccccc1 (stereo not drawn) | > 100 µM (inactive) |
| O=c1c([Se]c2coc3ccccc3c2=O)coc2ccccc12 | 12 µM (inactive) |

----------
- Test system: SN12C
- protocol.text: NCI tumour cell line growth inhibition, 48 h
Active and inactive are the calls of the source. No stated cut-off is given here; in the data, active = GI50 up to about 1.1 µM and inactive = higher.
Outcomes: true (1) = active, false (0) = inactive

| compound | class.assignment |
| --- | --- |
| FC(F)(F)C1(C(F)(F)F)C2CCC3(CC(F)(F)C(F)(F)S3)C1C2 (centres undefined) | false (0) |
| CC1(C)OC[C@@H](O)[C@H](Br)CO1 | false (0) |
| CC(=O)Nc1ccc(-c2nnc(SCC(=O)Nc3cccc(C)c3)o2)cc1 | false (0) |
| Nc1nc(Cl)c(N)c(NCC2(CO)CCC(OCc3ccccc3)C2)n1 (centres undefined) | false (0) |
| CC/C=C\C/C=C\C/C=C\CCCCCCCC(=O)OCC(O)CO (centres undefined) | false (0) |
| O=[N+]([O-])/C=C/c1cn(CCCCCCCCn2cc(/C=C/[N+](=O)[O-])c3ccccc32)c2ccccc12 | false (0) |
| S=C1/C(=N/c2ccccc2)N(c2ccccc2)/C(=N\c2ccccn2)N1c1ccccc1 | false (0) |
| COC1=C(Br)[C@H](O)[C@@]2(C=C1Br)CC(C(=O)NCCCOc1c(Br)cc(C(O)CNC(C)=O)cc1Br)=NO2 (some centres undefined) [APLYSINAMISINE III] | false (0) |
| COc1cccc(-c2[nH]c3cc4c(cc3c(=O)c2C(=O)O)OCO4)c1 | false (0) |
| CC1/C(=N\O)CC(c2ccccc2)N(C)C1c1ccccc1 (centres undefined) | false (0) |
| Nc1nc2cc(Cl)ccc2n1N | false (0) |
| CCCCCCCCCCCCCCCC(=O)N(CCCCCCCCCCC(=O)O)CC(O)C(O)C(OC1OC(CO)C(O)C(O)C1O)C(O)CO (centres undefined) | false (0) |
| N#Cc1c(N)nc2c(C#N)c(N)cc3c2c1Oc1ccccc1-3 | false (0) |
| O=C1C(=O)N(c2ccc(Cl)cc2Cl)C(=O)C(=O)C1c1nc2ccccc2s1 | false (0) |
| O=c1oc2ccccc2cc1-c1cn2cc(Cl)ccc2n1 | false (0) |
| CC(C)CC(NC(=O)C(CCI)Cc1ccccc1)C(=O)Nc1ccccc1 (centres undefined) | false (0) |
| NC1CC(=O)c2cscc21 (centres undefined) | false (0) |
| CC(=O)Oc1c2c(c(OC(C)=O)c3c1n(C(C)=O)c1ccccc1n3C(C)=O)n(C(C)=O)c1ccccc1n2C(C)=O | false (0) |
| O=C1c2ccccc2C(=O)c2cc(/N=N/c3c(O)ccc4ccccc34)ccc21 | false (0) |
| CCN(CC)C(=O)c1ccc(C)c(/N=N/N(C)C)c1 | false (0) |
| C[C@]12CC[C@H](O[C@@H]3O[C@H](CO[C@@H]4O[C@H](CO)[C@@H](O)[C@H](O)[C@H]4O)[C@@H](O)[C@H](O)[C@H]3O)C[C@@H]1CC[C@@H]1[C@@H]2CC[C@]2(C)[C@@H](C3=CC(=O)OC3)CC[C@]12O [UZARIN] | false (0) |
| C/C=C/C(C#N)O[Si](C)(C)C (centres undefined) | false (0) |
| CC1(C)Oc2ccccc2OC1O (centres undefined) | false (0) |
| CONC(C)=O | false (0) |
| O=C(O/N=C1/CCC/C1=C\c1ccccc1)c1ccccc1 | false (0) |
| O=C1/C(=C/c2ccco2)NC(=S)N1CN1CCOCC1 | false (0) |
| Cn1c(S)nc2c(Cl)cc(Cl)cc2c1=O | false (0) |
| CC1=CC(=O)NCCN1C | false (0) |
| C[C@@]12CCC(=O)C=C1CC[C@H]1C2=CC[C@]2(C)C1CC[C@@]2(C)O (some centres undefined) | false (0) |
| CCCCCCCCCCCCCCCCCc1nc(C#N)c(N)o1 | false (0) |
| COc1cccc(/C=C\c2cc(OC)c(OC)c(OC)c2)c1 | false (0) |
| CC(Br)C(=O)NC(CO)C(=O)O (centres undefined) | false (0) |
| O=C1c2n[nH]nc2C(=O)c2n[nH]nc21 | false (0) |
| [O-][S+]1SC(=S)C2C=CC=NC21 (centres undefined) | false (0) |
| Cc1ccc(OCC(=O)N2N=C(c3ccccc3)CC2(O)c2ccccc2)cc1 (centres undefined) | false (0) |
| CN=S(=O)(C[C@]1(O)CC2OC1C1OC(C)(C)OC21)c1ccccc1 (some centres undefined) | false (0) |
| O=C1C=C(Br)c2c(-c3ccccc3)oc3cccc1c23 | false (0) |
| Cc1ccc(NC(=O)/C(=N\Nc2ccc([N+](=O)[O-])cc2[N+](=O)[O-])C2C(=O)NC(=O)NC2=O)cc1 | false (0) |
| Cc1ccc(S(=O)(=O)NN=C2CCCCCCCCCCC2)cc1 | false (0) |
| COc1cc(C2C(C#N)=C(N)OC3=C2CCS(=O)(=O)c2ccc(C)cc23)cc(OC)c1OC (centres undefined) | false (0) |
| COC1=C(C(c2cc(OC)c(OC)c(OC)c2)c2cc3c(cc2OC)OCO3)C(=O)OC1 (centres undefined) | false (0) |
| Cc1c2cc[n+](C)cc2c(C)c2c1[nH]c1ccc(Cl)cc12 | true (1) |
| O=S(=O)(F)Cc1ccccc1 [PHENYLMETHYLSULFONYLFLUORIDE] | false (0) |
| O=C(O)C(Cc1ccccc1)Cc1ccccc1 | false (0) |

From: ChEMBL document CHEMBL1201862
